# target system: T1, IL-36R naturally expressed on OVCAR8 cells and on normal human epidermal keratinocytes (NHK cells) (human, UniProt Q9HB29 20-575)
# T1 sequence (looked up): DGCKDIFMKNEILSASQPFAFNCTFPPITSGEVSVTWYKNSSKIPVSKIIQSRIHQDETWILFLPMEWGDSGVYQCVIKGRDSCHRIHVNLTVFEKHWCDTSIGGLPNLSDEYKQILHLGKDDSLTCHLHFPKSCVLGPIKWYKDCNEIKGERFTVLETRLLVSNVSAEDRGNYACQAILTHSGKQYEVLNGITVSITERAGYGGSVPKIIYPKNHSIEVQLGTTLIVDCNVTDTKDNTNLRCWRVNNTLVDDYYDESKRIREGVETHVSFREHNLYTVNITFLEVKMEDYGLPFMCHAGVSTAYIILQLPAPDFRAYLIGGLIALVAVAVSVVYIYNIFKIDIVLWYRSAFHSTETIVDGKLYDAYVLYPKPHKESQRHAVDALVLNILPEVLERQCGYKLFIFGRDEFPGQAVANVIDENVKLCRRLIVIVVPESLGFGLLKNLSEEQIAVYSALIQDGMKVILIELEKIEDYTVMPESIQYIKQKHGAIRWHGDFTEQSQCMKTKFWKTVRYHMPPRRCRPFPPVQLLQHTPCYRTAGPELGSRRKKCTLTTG
# assay overview: cell-based or functional assay
# Maximum inhibition rate %; hIL36β; IL-8 production annotations
Numeric only. Scale: %

Sample records with Maximum inhibition rate %; hIL36β; IL-8 production:
hz84C4-1.2 (antibody, human IgG4 S228P, kappa, V domains shown, Humanized, human IgG4 / kappa) VH: QVQLVQSGAEVKKPGASVKVSCKASGYFFTSYWMNWVRQAPGQGLEWMGYIHPYDSETRYAQKFQGRVTMTVDKSTSTVYMELSSLRSEDTAVYYCASSTTAFAYWGQGTLVTVSS VL: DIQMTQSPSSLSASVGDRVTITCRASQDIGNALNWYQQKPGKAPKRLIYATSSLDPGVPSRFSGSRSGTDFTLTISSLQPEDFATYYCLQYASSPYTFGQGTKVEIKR : 98.9
hz84C4-2.3 (antibody, human IgG4 S228P, kappa, V domains shown, Humanized, human IgG4 / kappa) VH: QVQLVQSGAEVKKPGASVKVSCKASGYFFTSYWMNWVRQAPGQGLEWMGMIYPYDSETRYAQKFQGRVTMTVDKSTSTVYMELSSLRSEDTAVYYCASSTTAFAYWGQGTLVTVSS VL: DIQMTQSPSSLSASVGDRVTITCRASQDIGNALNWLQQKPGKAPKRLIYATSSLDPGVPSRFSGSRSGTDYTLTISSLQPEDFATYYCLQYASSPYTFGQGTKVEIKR : 18.6

Next:
[in] Specify Maximum inhibition rate %; hIL36β; IL-8 production for hz84C4-1.3 (antibody, human IgG4 S228P, kappa, V domains shown, Humanized, human IgG4 / kappa) VH: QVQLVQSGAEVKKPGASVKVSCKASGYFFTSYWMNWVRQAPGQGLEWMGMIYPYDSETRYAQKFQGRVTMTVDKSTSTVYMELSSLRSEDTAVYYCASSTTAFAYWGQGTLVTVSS VL: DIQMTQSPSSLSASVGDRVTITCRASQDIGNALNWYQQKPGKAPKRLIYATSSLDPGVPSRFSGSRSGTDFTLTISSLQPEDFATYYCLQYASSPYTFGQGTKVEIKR and stop.
[out] 21.8
